Taken from the supplement of paper PMC10065799.

target system: FGFR1 (UniProt P11362)
Sequence (P11362 whole entry, looked up): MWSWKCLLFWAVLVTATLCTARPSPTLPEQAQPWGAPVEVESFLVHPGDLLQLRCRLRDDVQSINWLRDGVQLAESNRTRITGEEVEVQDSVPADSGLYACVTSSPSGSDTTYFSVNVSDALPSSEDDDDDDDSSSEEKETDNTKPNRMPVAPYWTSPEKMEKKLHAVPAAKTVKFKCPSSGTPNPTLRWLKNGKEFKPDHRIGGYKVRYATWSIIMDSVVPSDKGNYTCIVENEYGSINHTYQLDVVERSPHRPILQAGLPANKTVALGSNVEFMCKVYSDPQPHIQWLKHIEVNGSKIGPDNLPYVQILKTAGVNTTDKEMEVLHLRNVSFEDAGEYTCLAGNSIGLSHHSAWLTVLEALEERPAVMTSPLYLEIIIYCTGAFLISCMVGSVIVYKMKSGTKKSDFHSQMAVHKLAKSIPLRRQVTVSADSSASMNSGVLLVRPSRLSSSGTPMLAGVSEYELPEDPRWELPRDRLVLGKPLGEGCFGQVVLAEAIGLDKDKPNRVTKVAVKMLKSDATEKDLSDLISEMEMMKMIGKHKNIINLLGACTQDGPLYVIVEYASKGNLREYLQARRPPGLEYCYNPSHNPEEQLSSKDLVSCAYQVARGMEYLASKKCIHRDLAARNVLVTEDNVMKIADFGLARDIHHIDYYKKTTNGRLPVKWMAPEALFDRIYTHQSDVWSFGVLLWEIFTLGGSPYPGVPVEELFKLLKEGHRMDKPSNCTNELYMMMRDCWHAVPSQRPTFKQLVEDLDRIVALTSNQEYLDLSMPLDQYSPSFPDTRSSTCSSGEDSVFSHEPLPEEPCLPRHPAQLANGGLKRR
method: phosphorylation enrichment, bacterial display (enrichment ratio); higher = better substrate or ligand; peptides without Tyr show the background
value type: phosphorylation enrichment

Recorded phosphorylation enrichment, per entry:
| seq string | assay value |
| --- | --- |
| KKRSVYLKVLF [CC2D2A_Y683] | 0.494 |
| FRDALYKSMVD [PHEX_Y250_F252S_YF] | 0.497 |
| APGDAYGDAGY [SYP_Y250] | 0.494 |
| SRVTQYERDFE [SNX1_Y463] | 0.501 |
| EDGFAYVPLKD [PRIM2_Y208] | 0.501 |

Answer with the recorded phosphorylation enrichment of KKLHKYNTQFQ [PIK3R1_Y452_E451K] only.
0.496

====

Catalogue of phosphorylation enrichment values
target system: EPHB2 (UniProt P29323)
Sequence (P29323 whole entry, looked up): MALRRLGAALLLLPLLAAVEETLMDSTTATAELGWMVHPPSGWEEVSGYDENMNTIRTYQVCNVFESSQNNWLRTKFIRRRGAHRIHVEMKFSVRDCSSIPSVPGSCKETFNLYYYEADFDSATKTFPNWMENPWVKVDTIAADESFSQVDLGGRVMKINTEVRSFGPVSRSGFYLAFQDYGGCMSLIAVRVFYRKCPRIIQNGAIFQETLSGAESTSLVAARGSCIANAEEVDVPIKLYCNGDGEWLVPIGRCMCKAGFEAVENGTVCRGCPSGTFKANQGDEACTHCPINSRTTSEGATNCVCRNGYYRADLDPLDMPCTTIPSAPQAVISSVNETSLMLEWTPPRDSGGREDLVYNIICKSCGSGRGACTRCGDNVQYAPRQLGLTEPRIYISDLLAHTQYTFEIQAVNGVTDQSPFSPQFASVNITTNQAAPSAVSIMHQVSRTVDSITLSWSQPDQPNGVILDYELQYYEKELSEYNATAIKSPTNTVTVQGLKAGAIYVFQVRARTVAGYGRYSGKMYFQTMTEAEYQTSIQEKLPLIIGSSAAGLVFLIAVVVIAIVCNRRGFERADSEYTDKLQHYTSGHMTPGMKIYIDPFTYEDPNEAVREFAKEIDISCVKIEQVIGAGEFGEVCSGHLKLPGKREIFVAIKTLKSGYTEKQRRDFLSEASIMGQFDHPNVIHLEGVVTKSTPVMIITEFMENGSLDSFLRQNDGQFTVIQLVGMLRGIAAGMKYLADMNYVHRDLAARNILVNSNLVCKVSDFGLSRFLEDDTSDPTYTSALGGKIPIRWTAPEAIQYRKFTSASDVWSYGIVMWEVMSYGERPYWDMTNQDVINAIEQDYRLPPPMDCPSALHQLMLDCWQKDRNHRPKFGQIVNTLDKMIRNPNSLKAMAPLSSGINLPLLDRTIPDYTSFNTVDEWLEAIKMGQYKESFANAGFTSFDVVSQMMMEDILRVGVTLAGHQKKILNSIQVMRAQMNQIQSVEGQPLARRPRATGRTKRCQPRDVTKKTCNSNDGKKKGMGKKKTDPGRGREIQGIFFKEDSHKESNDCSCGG
method: phosphorylation enrichment, bacterial display (enrichment ratio); higher = better substrate or ligand; peptides without Tyr show the background
Form rule: numeric answer, no unit written next to it.

Recorded phosphorylation enrichment, per entry:
| seq string | assay value |
| --- | --- |
| ILKPDYQPLAV [HYDIN_Y1072_I1077V] | 0.42 |
| AKLVQYYMEHH [PTPN11_Y80_E76K] | 1.21 |
| PMFHSYVSLPF [PLXNA2_Y293_K289M] | 1.86 |

Answer with the recorded phosphorylation enrichment of SSWPGYVRPLP [HSPB1_Y54] only.
0.423

Answer with the recorded phosphorylation enrichment of EHAGEYGAEAL [HBA1_Y25_A20E] only.
0.543

Answer with the recorded phosphorylation enrichment of QKMLDYLKEKK [RYR2_Y3780] only.
0.345

Answer with the recorded phosphorylation enrichment of KSIQLYDTPFE [SHB_Y297_G293S_YF] only.
18

====

target system: Grb2 SH2 (UniProt P62993)
Sequence (P62993 whole entry, looked up): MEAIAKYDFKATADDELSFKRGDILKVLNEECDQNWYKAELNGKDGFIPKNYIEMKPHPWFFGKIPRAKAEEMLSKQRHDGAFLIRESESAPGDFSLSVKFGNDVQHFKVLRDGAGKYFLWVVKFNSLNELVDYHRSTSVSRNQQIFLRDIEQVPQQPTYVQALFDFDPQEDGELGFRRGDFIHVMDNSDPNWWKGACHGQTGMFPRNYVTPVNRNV
method: SH2 binding enrichment of the phosphorylated peptide, bacterial display (enrichment ratio); higher = better substrate or ligand; peptides without Tyr show the background
Label TRUE for high-side SH2 binding enrichment (at or above 0.8) and FALSE for low-side SH2 binding enrichment (below it).

Check if SH2 binding enrichment >= 0.8 (inclusive). Item: KELAPYDENCF [RPS19_Y48_W52C]
TRUE

Check if SH2 binding enrichment >= 0.8 (inclusive). Item: IGSQRYKLGVR [RB1_Y446]
TRUE

Check if SH2 binding enrichment >= 0.8 (inclusive). Item: ITGNGYFFRVF [MYBPC3_Y1135_I1131T_YF]
FALSE

Check if SH2 binding enrichment >= 0.8 (inclusive). Item: KEDSVYGSQSV [NFKB2_Y868_A867V]
TRUE

Check if SH2 binding enrichment >= 0.8 (inclusive). Item: EQMASYFGHSV [ITGA2B_Y319]
FALSE

====

Catalogue of phosphorylation enrichment values
target system: Hck (UniProt P08631)
Sequence (P08631 whole entry, looked up): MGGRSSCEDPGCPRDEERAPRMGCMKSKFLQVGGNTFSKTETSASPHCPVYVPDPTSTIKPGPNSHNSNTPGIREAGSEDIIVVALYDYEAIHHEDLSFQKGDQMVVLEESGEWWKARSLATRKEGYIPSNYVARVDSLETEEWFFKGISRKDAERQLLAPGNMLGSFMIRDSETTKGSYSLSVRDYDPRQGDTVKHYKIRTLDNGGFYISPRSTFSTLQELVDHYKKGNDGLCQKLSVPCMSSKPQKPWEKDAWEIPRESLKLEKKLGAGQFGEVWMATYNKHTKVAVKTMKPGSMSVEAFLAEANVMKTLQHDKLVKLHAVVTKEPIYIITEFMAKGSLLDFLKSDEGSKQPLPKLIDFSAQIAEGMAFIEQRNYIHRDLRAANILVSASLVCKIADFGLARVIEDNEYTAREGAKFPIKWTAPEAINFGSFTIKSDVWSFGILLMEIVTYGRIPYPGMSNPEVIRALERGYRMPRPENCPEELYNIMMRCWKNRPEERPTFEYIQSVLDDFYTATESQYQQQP
method: phosphorylation enrichment, bacterial display (enrichment ratio); higher = better substrate or ligand; peptides without Tyr show the background

Recorded phosphorylation enrichment, per entry:
| seq string | phosphorylation enrichment |
| --- | --- |
| CLMILYRLKER [PTPRR_Y249] | 0.494 |
| SAASSYSFSDL [EMD_Y59] | 0.468 |

Answer with the recorded phosphorylation enrichment of KFMVGYEMLAQ [GALT_Y339] only.
0.526

Answer with the recorded phosphorylation enrichment of KNILCYIQGGS [HYDIN_Y4610] only.
0.594

====

target system: Grb2 SH2 (UniProt P62993)
method: SH2 binding enrichment of the phosphorylated peptide, bacterial display (enrichment ratio); higher = better substrate or ligand; peptides without Tyr show the background
Catalogue of SH2 binding enrichment values
Form rule: numeric answer, no unit written next to it.

Recorded SH2 binding enrichment, per entry:
| seq string | target system | SH2 binding enrichment |
| --- | --- | --- |
| GIVKAYYVRAR [AIPL1_Y267] | Grb2 SH2 (UniProt P62993) | 0.858 |
| LKLWDYRRGRC [WDR5B_Y239_S240R] | Grb2 SH2 (UniProt P62993) | 0.705 |
| HKDNNYVSMWF [PAPOLG_Y432] | Grb2 SH2 (UniProt P62993) | 1.02 |

# input for lookup
Answer with the recorded SH2 binding enrichment of KDLPNYNWKSF [KISS1_Y112_N115K] only.
0.664

====

target system: Hck (UniProt P08631)
method: phosphorylation enrichment, bacterial display (enrichment ratio); higher = better substrate or ligand; peptides without Tyr show the background
Parameter class (string): assigned from measured phosphorylation enrichment. Ranges: class A (below 0.5), class B (0.5 to below 0.7), class C (0.7 or more)

// known answers, use as guide
| seq string | classification |
| --- | --- |
| LGLTVYADCLA [ABCA4_Y2063] | class B |
| PTTKTYFPHFY [HBA1_Y43_D48Y] | class B |
| KFEDVYVGICL [B3GALNT1_Y269] | class C |

Class (by measured phosphorylation enrichment) for AKNKDYMSIIR [GNE_Y197]
class A

Class (by measured phosphorylation enrichment) for FAASSYSFSDL [EMD_Y59_S54F]
class B

Class (by measured phosphorylation enrichment) for EEQKRYYNAMK [SCN5A_Y1494_K1493R]
class A

Class (by measured phosphorylation enrichment) for LNPLIYSLRNK [OR5R1_Y290]
class C

Class (by measured phosphorylation enrichment) for EDGFAYVPLKD [PRIM2_Y208]
class B

Class (by measured phosphorylation enrichment) for AQAERYDDMAA [YWHAG_Y20_E15A]
class A

Class (by measured phosphorylation enrichment) for GRRNTCFASIA [ACADM_Y352_Y352C_YF]
class A

Class (by measured phosphorylation enrichment) for LEITWYPFDME [RIPOR2_Y316_V320M]
class B

Class (by measured phosphorylation enrichment) for IGSQRYKLGVR [RB1_Y446]
class A

Class (by measured phosphorylation enrichment) for GGTPLYMDRQG [AGXT_Y194]
class C

Class (by measured phosphorylation enrichment) for AAFNRYDQERF [CDC73_Y293_YF]
class A

Class (by measured phosphorylation enrichment) for AAVDNYCRHNF [HLA-DRB1_Y107_T106N_YF]
class A

Class (by measured phosphorylation enrichment) for ERDYTYEELLN [EIF2S2_Y176]
class C

====

Catalogue of phosphorylation enrichment values
target system: FGFR3 (UniProt P22607)
Sequence (P22607 whole entry, looked up): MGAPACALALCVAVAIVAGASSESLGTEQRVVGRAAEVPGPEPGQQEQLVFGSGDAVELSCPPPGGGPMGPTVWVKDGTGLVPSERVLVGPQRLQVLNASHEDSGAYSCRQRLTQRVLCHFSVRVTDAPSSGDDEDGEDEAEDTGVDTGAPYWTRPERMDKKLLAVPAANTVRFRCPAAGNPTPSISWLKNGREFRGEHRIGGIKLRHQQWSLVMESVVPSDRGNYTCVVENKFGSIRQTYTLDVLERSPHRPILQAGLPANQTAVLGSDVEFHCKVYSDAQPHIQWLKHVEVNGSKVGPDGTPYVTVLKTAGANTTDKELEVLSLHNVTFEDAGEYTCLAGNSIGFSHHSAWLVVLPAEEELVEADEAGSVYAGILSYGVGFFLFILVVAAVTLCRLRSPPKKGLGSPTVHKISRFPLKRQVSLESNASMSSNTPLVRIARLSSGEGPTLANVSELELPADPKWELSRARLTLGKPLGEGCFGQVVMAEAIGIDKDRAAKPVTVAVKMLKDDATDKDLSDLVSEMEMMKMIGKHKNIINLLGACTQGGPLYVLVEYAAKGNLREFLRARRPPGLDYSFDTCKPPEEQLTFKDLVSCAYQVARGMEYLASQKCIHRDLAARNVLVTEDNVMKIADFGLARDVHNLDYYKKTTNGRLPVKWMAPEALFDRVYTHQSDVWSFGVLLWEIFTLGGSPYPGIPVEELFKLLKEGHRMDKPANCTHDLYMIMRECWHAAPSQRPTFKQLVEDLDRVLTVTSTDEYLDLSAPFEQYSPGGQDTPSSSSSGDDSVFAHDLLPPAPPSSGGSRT
method: phosphorylation enrichment, bacterial display (enrichment ratio); higher = better substrate or ligand; peptides without Tyr show the background
Form rule: numeric answer, no unit written next to it.

Recorded phosphorylation enrichment, per entry:
| seq string | value type | assay value |
| --- | --- | --- |
| FEREQYADRTR [RBM4_Y355_A359T_YF] | phosphorylation enrichment | 0.429 |
| CTLNVYRQLHN [LUZP1_Y1036_S1034N] | phosphorylation enrichment | 0.749 |
| DDSSAYRSVDE [BCKDHA_Y345] | phosphorylation enrichment | 0.707 |
| SFHCSYSEIKD [DCLRE1C_Y322_S320C] | phosphorylation enrichment | 0.811 |
| PCLLRYLQLDF [ASB10_Y457_R453C] | phosphorylation enrichment | 1.14 |

Param request: phosphorylation enrichment | system FGFR3 (UniProt P22607) | item PHQTIYSALMI [FGF23_Y70]
1.61

Param request: phosphorylation enrichment | system FGFR3 (UniProt P22607) | item ASTHVYQIMNH [ITK_Y588]
0.423

====

Catalogue of phosphorylation enrichment values
target system: FGFR3 (UniProt P22607)
method: phosphorylation enrichment, bacterial display (enrichment ratio); higher = better substrate or ligand; peptides without Tyr show the background
Form rule: numeric answer, no unit written next to it.

| seq string | phosphorylation enrichment |
| --- | --- |
| FISVGYVDGTQ [HLA-B_Y51_D54G] | 0.587 |
| VEYAKYGSLRG [RET_Y809] | 0.47 |
| PDSVDYRKKGF [CTSK_Y121_YF] | 0.88 |
| KSRQIYDAFIM [GRK3_Y109_R104K_YF] | 0.6 |
| PVQAASQKVVA [HBB_Y131_Y131S] | 1.55 |

Answer with the recorded phosphorylation enrichment of TSQSQYSSFRE [CCDC170_Y323_F324S] only.
0.531

Answer with the recorded phosphorylation enrichment of FAKTQYPDIFA [CRX_Y63_V66I_YF] only.
0.528

====

Catalogue of phosphorylation enrichment values
target system: Jak2 (UniProt O60674)
Sequence (O60674 whole entry, looked up): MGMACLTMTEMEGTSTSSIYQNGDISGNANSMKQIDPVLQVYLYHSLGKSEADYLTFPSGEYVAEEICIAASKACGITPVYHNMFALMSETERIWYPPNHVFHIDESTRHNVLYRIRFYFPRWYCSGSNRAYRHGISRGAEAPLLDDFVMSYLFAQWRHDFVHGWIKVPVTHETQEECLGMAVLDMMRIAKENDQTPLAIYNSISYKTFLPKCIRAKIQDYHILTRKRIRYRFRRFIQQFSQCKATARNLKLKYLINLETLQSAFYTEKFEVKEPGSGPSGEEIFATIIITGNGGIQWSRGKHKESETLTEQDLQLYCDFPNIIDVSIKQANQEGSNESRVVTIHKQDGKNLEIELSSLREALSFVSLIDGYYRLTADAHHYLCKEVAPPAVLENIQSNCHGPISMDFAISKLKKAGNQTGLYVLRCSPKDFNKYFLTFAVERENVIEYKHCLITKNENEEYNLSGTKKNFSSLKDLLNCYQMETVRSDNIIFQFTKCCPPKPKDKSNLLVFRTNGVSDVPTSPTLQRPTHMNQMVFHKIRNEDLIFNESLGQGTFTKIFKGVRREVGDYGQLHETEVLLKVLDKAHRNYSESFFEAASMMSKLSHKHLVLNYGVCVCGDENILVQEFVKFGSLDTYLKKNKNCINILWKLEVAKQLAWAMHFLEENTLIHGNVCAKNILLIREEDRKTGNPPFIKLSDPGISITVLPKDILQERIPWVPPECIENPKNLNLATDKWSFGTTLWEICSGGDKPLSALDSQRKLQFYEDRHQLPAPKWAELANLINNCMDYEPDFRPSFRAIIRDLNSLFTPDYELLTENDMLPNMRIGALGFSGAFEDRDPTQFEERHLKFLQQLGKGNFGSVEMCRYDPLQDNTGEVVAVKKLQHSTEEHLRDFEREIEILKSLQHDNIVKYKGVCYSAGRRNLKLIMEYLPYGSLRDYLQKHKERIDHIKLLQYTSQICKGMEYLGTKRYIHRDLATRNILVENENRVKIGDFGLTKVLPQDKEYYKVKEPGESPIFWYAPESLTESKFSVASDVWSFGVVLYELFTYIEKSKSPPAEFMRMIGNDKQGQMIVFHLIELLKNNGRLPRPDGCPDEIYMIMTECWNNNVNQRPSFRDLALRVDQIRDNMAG
method: phosphorylation enrichment, bacterial display (enrichment ratio); higher = better substrate or ligand; peptides without Tyr show the background
Form rule: numeric answer, no unit written next to it.

| seq string | assay value |
| --- | --- |
| PPGRSYSPCDY [TNS1_Y793_Y796C] | 1.02 |

Answer with the recorded phosphorylation enrichment of FVTSMYNEILI [TRPV1_Y310_M315I] only.
1.01
